target: HLA-A*01:01 (Homo sapiens, UniProt P04439, A114D/A174V/A182V/D101N/D185E/E176A/E190D/L180R/Q94H/R68K/S129P/T187R/V100A/V91M/W191G); experiment: MHC binding assay (UV-ligand exchange, β2m ELISA); conditions: peptide exchange yield
Readout Kind: Peptide exchange

Observe how each entry below is paired with its result.
{"Substance": "9 (FITAQNHGY; listed as Homo sapiens) [compound 9]", "Peptide exchange": "“++” (>20% = ++)"}
{"Substance": "6 (VLDLSTNVY; listed as Homo sapiens) [compound 6]", "Peptide exchange": "“+++” (>50 = +++)"}
{"Substance": "245 (ITEKNSGLY; listed as Homo sapiens) [compound 245]", "Peptide exchange": "“+++” (>50 = +++)"}
{"Substance": "3 (ASSTDSASYY; listed as Homo sapiens) [compound 3]", "Peptide exchange": "“+++” (>50 = +++)"}

Next substance, Peptide exchange to be filled in.
QUERY: Report Peptide exchange, nothing else, for this substance: 32 (ATVGYFIFY; listed as Homo sapiens) [compound 32]
RESULT: “++” (>20% = ++)

----------
molecular target: HLA-B*07:02 (Homo sapiens); assay: MHC binding assay (UV-ligand exchange, β2m ELISA); conditions: peptide exchange yield, binding to HLA-B*07:02
Readout Kind: Peptide exchange

Observe how each entry below is paired with its result.
{"Substance": "159 (FPAHPSLLL; listed as Homo sapiens) [compound 159]", "Assay Target": "HLA-B*07:02 (Homo sapiens)", "Peptide exchange": "“++” (>20% = ++)"}
{"Substance": "154 (GPGTRLSL; listed as Homo sapiens) [compound 154]", "Assay Target": "HLA-B*07:02 (Homo sapiens)", "Peptide exchange": "“++” (>20% = ++)"}
{"Substance": "168 (IPTDKLLVI; listed as Homo sapiens) [compound 168]", "Assay Target": "HLA-B*07:02 (Homo sapiens)", "Peptide exchange": "“++” (>20% = ++)"}
{"Substance": "161 (NPYEGRVEV; listed as Homo sapiens) [compound 161]", "Assay Target": "HLA-B*07:02 (Homo sapiens)", "Peptide exchange": "“++” (>20% = ++)"}
{"Substance": "175 (HPIETLVDIF; listed as Homo sapiens) [compound 175]", "Assay Target": "HLA-B*07:02 (Homo sapiens)", "Peptide exchange": "“++” (>20% = ++)"}

QUERY: Report Peptide exchange, nothing else, for this substance: 171 (APKLFAVAF; listed as Homo sapiens) [compound 171]
RESULT: “+++” (>50 = +++)

QUERY: Report Peptide exchange, nothing else, for this substance: 160 (RPAPADSAL; listed as Homo sapiens) [compound 160]
RESULT: “+++” (>50 = +++)

----------
target: HLA-A*24:02 (Homo sapiens, UniProt P04439, D101N/D140Y/D185E/E176V/E190D/F33S/G103R/G107R/I119L/I121M/I306V/K335N/L105A/L180Q/L300P/N151K/N90K/Q86E/Q94H/R106L/R138H/R89G/T104I/T345S/V100E/W191G/Y123F); test: MHC binding assay (UV-ligand exchange, β2m ELISA); settings: peptide exchange yield, binding to HLA-A*24:02
Readout Kind: Peptide exchange

Observe how each entry below is paired with its result.
{"Substance": "137 (KYLSLSNSF; listed as Homo sapiens) [compound 137]", "Peptide exchange": "“++++” (>75% = ++++)"}
{"Substance": "134 (TYLTGRQF; listed as Homo sapiens) [compound 134]", "Peptide exchange": "“++” (>20% = ++)"}
{"Substance": "141 (KYLSIPAVFF; listed as Homo sapiens) [compound 141]", "Peptide exchange": "“++++” (>75% = ++++)"}
{"Substance": "122 (KLYGMPTDFGF; listed as Homo sapiens) [compound 122]", "Peptide exchange": "“++” (>20% = ++)"}
{"Substance": "140 (KYLSIPAVF; listed as Homo sapiens) [compound 140]", "Peptide exchange": "“++++” (>75% = ++++)"}
{"Substance": "129 (VFLNQIYTQL; listed as Homo sapiens) [compound 129]", "Peptide exchange": "“++” (>20% = ++)"}

QUERY: Report Peptide exchange, nothing else, for this substance: 138 (KYLSIPTVF; listed as Homo sapiens) [compound 138]
RESULT: “++++” (>75% = ++++)
